Experimental details: physchem
Conditions: 30% CH3CN/acetate buffer, pH 4
Description: Half life in pH 4 30%CH3CN/acetate buffer at 50 mM by RP-UPLC analysis
The entries below are paired with their reported half-life at 50000 µM.

COC(=O)N[C@H](C(=O)N[C@@H](Cc1ccccc1)[C@H](CN(Cc1ccc(-c2ccccn2)cc1)NC(=O)[C@@H](NC(=O)OC)C(C)(C)C)OC(=O)[C@@H](NC(=O)[C@@H](N)C(C)C)C(C)C)C(C)(C)C :: > 20.8 days
COC(=O)N[C@H](C(=O)N[C@@H](Cc1ccccc1)[C@H](CN(Cc1ccc(-c2ccccn2)cc1)NC(=O)[C@@H](NC(=O)OC)C(C)(C)C)OC(=O)CN(C)C(=O)[C@H](Cc1ccccc1)N(C)C)C(C)(C)C :: > 20.8 days
CN[C@@H](Cc1ccccc1)C(=O)N(C)CC(=O)O[C@@H](CN(Cc1ccc(-c2ccccn2)cc1)NC(=O)[C@@H](NC(=O)OC)C(C)(C)C)[C@H](Cc1ccccc1)NC(=O)[C@@H](NC(=O)OC)C(C)(C)C :: 0.65 days
COC(=O)N[C@H](C(=O)N[C@@H](Cc1ccccc1)[C@H](CN(Cc1ccc(-c2ccccn2)cc1)NC(=O)[C@@H](NC(=O)OC)C(C)(C)C)OC(=O)[C@H](NC(=O)[C@H](N)C(C)C)C(C)C)C(C)(C)C :: > 20.8 days

Proceeding to the next compound to report its half-life at 50000 µM.
Query: Given the compound `COC(=O)N[C@H](C(=O)N[C@@H](Cc1ccccc1)[C@H](CN(Cc1ccc(-c2ccccn2)cc1)NC(=O)[C@@H](NC(=O)OC)C(C)(C)C)OC(=O)[C@@H](N)CCSC)C(C)(C)C` , write its reported half-life at 50000 µM.
Reply: > 20.8 days

###

Experimental details: Stability in pH 6.5 30%CH3CN/phosphate buffer assessed as parent compound remaining at 50 mM measured after 30 mins by RP-UPLC analysis
Format: physicochemical
Conditions: read-out: Stability
Measurement kind: remaining at 0.5 h, 50000 µM (%)
# number only, unit % dropped from output

Query: Given the molecule `COC(=O)N[C@H](C(=O)N[C@@H](Cc1ccccc1)[C@H](CN(Cc1ccc(-c2ccccn2)cc1)NC(=O)[C@@H](NC(=O)OC)C(C)(C)C)OC(=O)CN(C)C(=O)[C@@H](N)Cc1ccccc1)C(C)(C)C.Cl.Cl` , write its reported remaining at 0.5 h, 50000 µM.
Reply: 2

###

Experimental details: physchem
Conditions: phosphate buffer, pH 7.4
Description: Aqueous solubility of the compound in pH 7.4 phosphate buffer by RP-UPLC analysis
Measurement kind: solubility (µg/mL)

COC(=O)N[C@H](C(=O)N[C@@H](Cc1ccccc1)[C@H](CN(Cc1ccc(-c2ccccn2)cc1)NC(=O)[C@@H](NC(=O)OC)C(C)(C)C)OC(=O)[C@@H](N)Cc1ccccc1)C(C)(C)C :: 1

[1] COC(=O)N[C@H](C(=O)N[C@@H](Cc1ccccc1)[C@H](CN(Cc1ccc(-c2ccccn2)cc1)NC(=O)[C@@H](NC(=O)OC)C(C)(C)C)OC(=O)CN(C)C)C(C)(C)C
[2] COC(=O)N[C@H](C(=O)N[C@@H](Cc1ccccc1)[C@H](CN(Cc1ccc(-c2ccccn2)cc1)NC(=O)[C@@H](NC(=O)OC)C(C)(C)C)OC(=O)[C@@H](N)Cc1ccc(O)cc1)C(C)(C)C
Query: I'm curious whether 1 or 2 has the smaller solubility number. Which is it? // return label of chosen record
Reply: 2

###

Experimental details: physchem
Conditions: phosphate buffer, pH 7.4
Measurement kind: solubility (mg/mL)

// worked examples, solubility included
COC(=O)N[C@H](C(=O)N[C@@H](Cc1ccccc1)[C@H](CN(Cc1ccc(-c2ccccn2)cc1)NC(=O)[C@@H](NC(=O)OC)C(C)(C)C)OC(=O)CN)C(C)(C)C :: 0.96
COC(=O)N[C@H](C(=O)N[C@@H](Cc1ccccc1)[C@H](CN(Cc1ccc(-c2ccccn2)cc1)NC(=O)[C@@H](NC(=O)OC)C(C)(C)C)OC(=O)[C@@H](N)CCSC)C(C)(C)C :: 0.044

[1] COC(=O)N[C@H](C(=O)N[C@@H](Cc1ccccc1)[C@H](CN(Cc1ccc(-c2ccccn2)cc1)NC(=O)[C@@H](NC(=O)OC)C(C)(C)C)OC(=O)[C@H](N)CCSC)C(C)(C)C
[2] COC(=O)N[C@H](C(=O)N[C@@H](Cc1ccccc1)[C@H](CN(Cc1ccc(-c2ccccn2)cc1)NC(=O)[C@@H](NC(=O)OC)C(C)(C)C)OC(=O)[C@@H](N)Cc1c[nH]c2ccccc12)C(C)(C)C
Query: For the two items 1 and 2 , which reports the higher solubility value? // return label of chosen record
Reply: 1
(1: 0.045 mg/mL, 2: 0.001 mg/mL)

###

The entries below are paired with their reported pIC50.
Assayed target: UDP-glucuronosyltransferase 1A1 (Homo sapiens, UniProt P22309)
Sequence (P22309 whole entry): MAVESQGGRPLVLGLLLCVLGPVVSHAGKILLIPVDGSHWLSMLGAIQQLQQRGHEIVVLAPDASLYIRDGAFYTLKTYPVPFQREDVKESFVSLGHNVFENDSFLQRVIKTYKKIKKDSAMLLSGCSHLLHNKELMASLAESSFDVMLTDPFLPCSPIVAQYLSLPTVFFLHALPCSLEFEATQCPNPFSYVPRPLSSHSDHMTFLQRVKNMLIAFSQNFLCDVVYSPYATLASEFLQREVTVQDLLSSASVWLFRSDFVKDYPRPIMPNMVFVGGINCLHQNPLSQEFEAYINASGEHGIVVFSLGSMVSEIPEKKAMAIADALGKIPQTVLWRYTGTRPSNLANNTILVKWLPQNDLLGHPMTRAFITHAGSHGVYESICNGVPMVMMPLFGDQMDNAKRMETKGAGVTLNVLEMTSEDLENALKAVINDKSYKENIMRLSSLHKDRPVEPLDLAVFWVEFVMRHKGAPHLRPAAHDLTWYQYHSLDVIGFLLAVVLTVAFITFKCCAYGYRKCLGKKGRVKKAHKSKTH
Experimental details: Inhibition of UGT1A1 in human liver microsomes using beta-estradiol as substrate preincubated for 5 mins followed by substrate addition and measured after 40 mins by LC-MS/MS analysis
Assay type: ADME
Scale note: pIC50 = -log10(concentration in M).

COC(=O)N[C@H](C(=O)N[C@@H](Cc1ccccc1)[C@@H](O)CN(Cc1ccc(-c2ccccn2)cc1)NC(=O)[C@@H](NC(=O)OC)C(C)(C)C)C(C)(C)C :: 6.22

Proceeding to the next compound to report its pIC50.
Query: Write down the reported pIC50 (system: UDP-glucuronosyltransferase 1A1 (Homo sapiens, UniProt P22309)) of `COC(=O)N[C@H](C(=O)N[C@@H](Cc1ccccc1)[C@H](CN(Cc1ccc(-c2ccccn2)cc1)NC(=O)[C@@H](NC(=O)OC)C(C)(C)C)OC(=O)[C@@H](N)Cc1ccccc1)C(C)(C)C`
Reply: 5.60

###

The entries below are paired with their reported pIC50.
Assayed target: UDP-glucuronosyltransferase 1A1 (Homo sapiens)
Sequence (P22309 whole entry): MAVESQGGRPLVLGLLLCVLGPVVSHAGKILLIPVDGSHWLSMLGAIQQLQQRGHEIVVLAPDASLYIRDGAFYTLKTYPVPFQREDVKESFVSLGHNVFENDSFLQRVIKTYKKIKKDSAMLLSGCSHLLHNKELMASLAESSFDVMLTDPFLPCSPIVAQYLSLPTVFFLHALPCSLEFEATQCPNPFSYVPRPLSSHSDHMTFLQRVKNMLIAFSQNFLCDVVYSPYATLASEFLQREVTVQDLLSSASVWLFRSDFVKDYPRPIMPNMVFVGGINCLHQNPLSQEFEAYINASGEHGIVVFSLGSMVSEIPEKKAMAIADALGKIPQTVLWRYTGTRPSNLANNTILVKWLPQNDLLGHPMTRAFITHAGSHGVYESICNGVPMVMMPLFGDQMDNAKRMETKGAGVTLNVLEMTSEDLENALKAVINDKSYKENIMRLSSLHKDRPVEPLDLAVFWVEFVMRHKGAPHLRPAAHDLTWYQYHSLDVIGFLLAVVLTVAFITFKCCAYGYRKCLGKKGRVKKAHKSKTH
Experimental details: Inhibition of recombinant human UGT1A1 using bilirubin as substrate preincubated for 5 mins followed by substrate addition and measured after 40 mins by LC-MS/MS analysis
Type: ADME
Scale note: pIC50 = -log10(concentration in M).

COC(=O)N[C@H](C(=O)N[C@@H](Cc1ccccc1)[C@H](CN(Cc1ccc(-c2ccccn2)cc1)NC(=O)[C@@H](NC(=O)OC)C(C)(C)C)OC(=O)[C@@H](N)Cc1ccccc1)C(C)(C)C :: 5.55

Proceeding to the next molecule to report its pIC50.
Query: Given the molecule `COC(=O)N[C@H](C(=O)N[C@@H](Cc1ccccc1)[C@@H](O)CN(Cc1ccc(-c2ccccn2)cc1)NC(=O)[C@@H](NC(=O)OC)C(C)(C)C)C(C)(C)C` , write its reported pIC50.
Reply: 6.52

###

Experimental details: Cmax in cannulated Sprague-Dawley rat assessed as atazanavir level at 6 mg/kg equiv of atazanavir administered orally by UPLC/MS/MS analysis
Type: ADME, organism-based
Set-up: dose 6 mg/kg, route oral
Conditions: in vivo, po
Measurement kind: Cmax (nM)
# number only, unit nM dropped from output

Query: Given the compound `COC(=O)N[C@H](C(=O)N[C@@H](Cc1ccccc1)[C@H](CN(Cc1ccc(-c2ccccn2)cc1)NC(=O)[C@@H](NC(=O)OC)C(C)(C)C)OC(=O)[C@@H](N)Cc1ccccc1)C(C)(C)C` , write its reported Cmax.
Reply: 550
